Data credit: the supplement of paper PMC6555819

System: PPARg:RXRa DBDmut IVT, anti-RXR (DBD mutation: RXRa K156A/R161A, NR concentration 270 nM, RXRa partner concentration 90 nM)
Test: PBM binding z-score (relative to random genomic background probes); higher = stronger binding; sequences stand for … in GC…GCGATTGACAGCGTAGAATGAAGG
Outcome label depends on PBM binding z-score relative to 4: at/above gives YES, below gives NO.

INSERT INTO results (construct_sequence, discrete_label) VALUES
  ('CAAGCTAGGTCAAGAGGTCAAAGTCCGCTTCCCG', 'YES'),
  ('CAAACTAGGTCAAAGGTCAAACTCGAGCCAACCA', 'YES'),
  ('ATATGTCGGTTAGGGTCATTCAGAAAGTAGGGAA', 'NO');

# input Is PBM binding z-score for CGAACTAGGTGATTGACAGGACAGTGAATAGTAA at or above 4?
# output YES

# input Also CTATGTAGGTTAAGGGGGTCTTTCAGTTTGAAAG , if possible.
# output YES

# input Also GCTTCCGGGTCAAAGGTTATAGCATGAATAGAAT , if possible.
# output YES

# input Also CCTAGTAGGTTATGGGGCATTCAGGCAACGGTGA , if possible.
# output YES

# input Also AGAGTGAGGTTACCAAAGATCAGGGAAACGCTTG , if possible.
# output NO

# input Also CGAACTAGGTCACCAGGACAGTGCAGAGGTTGGA , if possible.
# output YES

# input Also CGTCCAAGGTCAAAGGTCACTGAAGAGATGACGG , if possible.
# output YES

# input Also ATGTGTAGGTTACATCCGGGTCATTCAGGCTATG , if possible.
# output NO

# input Also TCTCGGATGACACGAAAGGTCAGAGCTCGACATC , if possible.
# output NO

# input Also CTATGTAGGTTAAGGGGGTGATTCAGTTTGAAAG , if possible.
# output YES

# input Also TCGAGTAGGTTTCGGGGGCATTCAGGGATGAAGA , if possible.
# output NO

# input Also CTATGTAGGTTAAGGGGCTCATTCAGTTTGAAAG , if possible.
# output YES

# input Also CGAACTAGGCCACCAGGACAGTGAAGAGGTTGGA , if possible.
# output YES

# input Also CCGAGTAGGTTACGAGGGGGCATTCCGTGCGAAT , if possible.
# output YES

# input Also CGTCCAAGGTCATAGGAGGTCACTGAAGACAGAT , if possible.
# output NO

====

Tested on: PPARg:RXRa 90nM:30nM, anti-RXR (NR concentration 90 nM, RXRa partner concentration 30 nM)
Assay: PBM binding z-score (relative to random genomic background probes); higher = stronger binding; sequences stand for … in GC…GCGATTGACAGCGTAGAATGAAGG
Reported PBM binding z-score by item:
I'd appreciate a reply containing only the number, no unit.

Here are 5 sequences together with their reported answers.
INSERT INTO assay_data (construct_sequence, reported_result) VALUES
  ('ACTCGGAGGACAAAGGTGAGAGCTACGCCAGTGA', 5.42),
  ('CCTAGTGGGCCAAAGGTCATTGATTCCAATGCTC', 12.9),
  ('CAAAATAGGTCAAGAGGTCAAAGTCCGCTTCCCG', 8.11),
  ('CCGACTGGGGCAAAGGTTACCATGCTCAGTACGA', 11.4),
  ('CTATGTTGGTTAAGGGGGTCATTCAGTTTGAAAG', 4.57);

--- query ---
# input Fill in the blank: the reported PBM binding z-score of CGAACTAGGTCAAAGGACAGTTAAAGGCGACGTA is ____.
# output 9.57
